Below, each entry is listed with its recorded Kd.
- target-or-system: human IgG1 (human)
- procedure-summary: SPR, Biacore X-100, human IgG1 on the chip, single cycle kinetics
experimental-endpoint: Kd (nM)

>>> observed_value("single-chain antibody R3-26 (scFv) scFv: QEQLVESGGGLVKPGGTLTLTCTVSGIDLSSYAMSWVRQVPGKGLEWIGIIGSGGGTAYANWAKGRFTISKTSSTTVDLKMTSLTTEDTATYFCATDYGIYGYAYGHLWGPGTLVTVTSGGGGSGGGGSGGGGSELVMTQTASPVSAAVGGTVTIKCQASQSISTALAWYQQRPGQPPKLLIYDASTLASGVSSRFKGSGSGTEFTLTISDLECADAATYYCQTYFGSDTDNAFGEGTEVEITGSAAALEHHHHHH")
2.1
>>> observed_value("R3-26 repCK+ori6K (scFv) scFv: QEQLVESGGGLVKPGGTLTLTCTVSGIDLSSYAMSWVRQVPGKGLEWIGIIGSGGGTAYANWARGRFTISRTSSTTVDLRMTSLTTEDTATYFCATDYGIYGYAYGHLWGPGTLVTVTKGGGGSGGGGSGGGGSELVMTQTASPVSAKVGGTVTINCQASQSISTALAWYQQKPGQPPRLLIYDASTLASGVSSRFSGSGSGTEFTLTISDLESADAATYYCQTYFGSDTDNAFGEGTEVEIKGSAAALEHHHHHH")
0.79
>>> observed_value("R3-26 repCK+K (scFv) scFv: QEQLVESGGGLVTPGGTLTLTCTVSGIDLSSYAMSWVRQVPGEGLEWIGIIGSGGGTAYANWARGRFTISRTSSTTVDLRMTSLTTEDTATYFCATDYGIYGYAYGHLWGPGTLVTVTSGGGGSGGGGSGGGGSELVMTQTASPVSAAVGGTVTINCQASQSISTALAWYQQRPGQPPRLLIYDASTLASGVSSRFSGSGSGTEFTLTISDLESADAATYYCQTYFGSDTDNAFGEGTEVEITGSAAAGGGGSKIEHHHHHH")
1.6
>>> observed_value("R3-26 repCK+ori6K+VH4KVL4K (scFv) scFv: QEQLVESGGGLVKPGGTLTLTCTVSGIDLSSYAMSWVRQVPGKGLEWIGIIGSGGGTAYANWARGRFTISRTSSTTVDLRMTSLTTEDTATYFCATDYGIYGYAYGHLWGPGTLVTVTKKKKKGGGGSGGGGSGGGGSELVMTQTASPVSAKVGGTVTINCQASQSISTALAWYQQKPGQPPRLLIYDASTLASGVSSRFSGSGSGTEFTLTISDLESADAATYYCQTYFGSDTDNAFGEGTEVEIKKKKKGSAAALEHHHHHH")
0.053
